Test: Determination of the microsomal half-life / microsomal clearance
Format: in vitro ADME
Details: pH 7.4; human liver microsomes, 0.5 μM test substance
Procedure: The metabolic stability of the compounds of the invention was determined in the following assay. The test substances were incubated in a concentration of 0.5 μM as follows: 0.5 μM test substance are preincubated together with liver microsomes from different species (from rat, human or other species) (0.25 mg of microsomal protein/ml) in 0.05 M potassium phosphate buffer of pH 7.4 in microtiter plates at 37° C. for 5 min. […] The samples are frozen until analyzed. […]
quantity-kind: microsomal CLint at 0.5 μM

molecule	microsomal CLint at 0.5 μM
CCOc1ncccc1C1(CC(=O)N2CCC(N3CCN(CC)CC3)CC2)C(=O)N(S(=O)(=O)c2ccccc2)c2ccc(C#N)cc21.O=C(O)C(F)(F)F (racemic) [Example 3, trifluoroacetic acid salt]	< 100 µL/min/mg
CCOc1ncccc1C1(CC(=O)N2CCC(N3CCN(C)CC3)CC2)C(=O)N(S(=O)(=O)c2ccccc2OC)c2ccc(C#N)cc21.O=C(O)C(F)(F)F (racemic) [Example 5, trifluoroacetic acid]	100 to 200 µL/min/mg
CCOc1ncccc1C1(CC(=O)N2CCC(N3CCN(C)CC3)CC2)C(=O)N(S(=O)(=O)c2ccccc2)c2ccc(C#N)cc21.O=C(O)C(F)(F)F (racemic) [Example 1, trifluoroacetic acid salt]	< 100 µL/min/mg
CCOc1ncccc1C1(CC(=O)N2CCN(C3CCN(C)CC3)CC2)C(=O)N(S(=O)(=O)c2ccccc2)c2ccc(C#N)cc21.O=C(O)C(F)(F)F (racemic) [Example 7, trifluoroacetic acid salt]	< 100 µL/min/mg

Query: Tell me its microsomal CLint at 0.5 μM given CCOc1ncccc1C1(CC(=O)N2CCN(C3CCN(C)CC3)CC2)C(=O)N(S(=O)(=O)c2ccc(OC)cc2OC)c2ccc(C#N)cc21.O=C(O)C(F)(F)F (racemic) [Example 9, trifluoroacetic acid salt] as the entry.
Result: < 100 µL/min/mg
